Run conditions: human gut metagenome, 24 h, 2 µM; also: call rule not given here
Where a SMILES comes first, the peptide text is derived from it. [ ]: non-standard residue; d: D form. pGlu = O=C1CC[C@@H](C(=O)O)N1; Thz = O=C(O)[C@@H]1CSCN1
Parameter: Bacterial Biotransformation

Observe how each entry below is paired with its result.
{"columns": ["Compound", "Parameter", "Reported result"],
 "data": [
  ["Cc1ccc(S(=O)(=O)NC(=O)NN2CC3CCCC3C2)cc1 (stereo unspecified) [GLICLAZIDE]", "Bacterial Biotransformation", "Compound metabolized"],
  ["CC(=O)OCC(=O)[C@@]1(O)[C@@H](C)C[C@H]2[C@@H]3CCC4=CC(=O)C=C[C@]4(C)[C@@]3(F)[C@@H](O)C[C@@]21C [BETAMETHASONE ACETATE]", "Bacterial Biotransformation", "Compound metabolized"],
  ["COc1c(C)c2c(c(O)c1C/C=C(\\C)CCC(=O)OCCN1CCOCC1)C(=O)OC2 [MYCOPHENOLATE MOFETIL]", "Bacterial Biotransformation", "Compound metabolized"],
  ["COc1ccc2c3c1O[C@H]1C[C@@H](O)C=C[C@@]31CCN(C)C2", "Bacterial Biotransformation", "Compound NOT metabolized"],
  ["COC(=O)C1=C(C)NC(C)=C(C(=O)OC(C)C)C1c1cccc2nonc12 (stereo unspecified)", "Bacterial Biotransformation", "Compound metabolized"],
  ["O=C1CC[C@@H](C(=O)N2CSC[C@H]2C(=O)O)N1 [PIDOTIMOD] ([pGlu]-[Thz]-OH)", "Bacterial Biotransformation", "Compound NOT metabolized"],
  ["CN(C(=O)CN(CCO)CC(=O)N(C)C(C)(C)Cc1ccccc1)C(C)(C)Cc1ccccc1", "Bacterial Biotransformation", "Compound metabolized"],
  ["COc1cc2c(c(OC)c1OC)-c1ccc(OC)c(=O)cc1[C@@H](NC(C)=O)CC2", "Bacterial Biotransformation", "Compound metabolized"]
]}

IN: Quick check: Bacterial Biotransformation of O=C(O)CCc1nc(-c2ccccc2)c(-c2ccccc2)o1 ?
OUT: Compound metabolized

IN: Can you look up the measured Bacterial Biotransformation of CN(C)CC(c1ccc(O)cc1)C1(O)CCCCC1.O=C(O)CCC(=O)O (stereo unspecified) [DESVENLAFAXINE SUCCINATE] for me?
OUT: Compound NOT metabolized

IN: Any idea what its Bacterial Biotransformation is? The compound is CC(C(=O)O)c1ccc2c(c1)Cc1cccnc1O2 (stereo unspecified)
OUT: Compound metabolized

###

Run conditions: human gut metagenome, 24 h, 2 µM
Parameter: Bacterial Biotransformation

Before answering, review these 4 worked examples.
{"columns": ["Compound", "Parameter", "Reported result"],
 "data": [
  ["CCCc1nc(C(C)(C)O)c(C(=O)OCc2oc(=O)oc2C)n1Cc1ccc(-c2ccccc2-c2nnn[nH]2)cc1", "Bacterial Biotransformation", "Compound metabolized"],
  ["NC12CC3CC(CC(C3)C1)C2", "Bacterial Biotransformation", "Compound NOT metabolized"],
  ["Cc1ccc(-c2nc3ccc(C)cn3c2CC(=O)N(C)C)cc1", "Bacterial Biotransformation", "Compound metabolized"],
  ["OCCOCCN1CCN(C2=Nc3ccccc3Sc3ccccc32)CC1", "Bacterial Biotransformation", "Compound metabolized"]
]}

Kindly review the next compound as well.
IN: Record request: Bacterial Biotransformation value, item COc1ccccc1OCC(O)COC(N)=O (centres undefined)
OUT: Compound NOT metabolized

All figures here come from ChEMBL document CHEMBL5724914.
